Recorded IC50 for the following molecules
- Tested system: C-Raf kinase (Homo sapiens, UniProt P04049, Y340D/Y341D)
- Construct: Y340D,; GST (N); purchased Sigma
- Sequence (P04049 307-648 Y340D/Y341D): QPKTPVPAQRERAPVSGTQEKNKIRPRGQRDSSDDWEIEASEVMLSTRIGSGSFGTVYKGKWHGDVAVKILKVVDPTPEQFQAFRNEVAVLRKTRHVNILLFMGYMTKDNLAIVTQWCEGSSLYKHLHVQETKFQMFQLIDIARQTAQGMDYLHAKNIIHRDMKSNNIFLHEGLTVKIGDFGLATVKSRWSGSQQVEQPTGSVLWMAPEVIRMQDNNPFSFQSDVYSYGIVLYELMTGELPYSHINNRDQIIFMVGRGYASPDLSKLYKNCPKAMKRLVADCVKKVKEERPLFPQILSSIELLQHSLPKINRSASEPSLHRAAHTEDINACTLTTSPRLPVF
- Protocol details: Biochemical assay for C-Raf.1 (coupled pyruvate kinase/lactate dehydrogenase)
- Experimental context: read-out: CRAF.1 IC50

Molecule	Test readout	Value measured
COC(=O)Nc1cc(-c2cc(-c3cc(NC(=O)NC4CC(C)(C)C4)cnc3C)cc(OCCO)n2)ccn1 [Example 156]	IC50	≤ 0.1 µM
CNC(=O)c1cc(-c2cnnc(-c3cc(NC(=O)N4CCC(C(C)(C)C)C4)ccc3C)c2)ccn1 (stereo not drawn) [Example 180]	IC50	0.1 to 0.5 µM
COC(C)(C)CCNC(=O)Nc1cc(-c2cccc(-c3ccnc(N)c3)c2)c(C)cc1F [Example 70]	IC50	0.1 to 0.5 µM
Cc1cc(F)c(NC(=O)NCCC2(C)CC2)cc1-c1cnnc(-c2ccnc(NC(=O)C3CC3)c2)c1 [Example 168]	IC50	≤ 0.1 µM
COC(C)(C)CCNC(=O)Nc1cc(-c2cc(OCCO)nc(-c3ccncc3)c2)c(C)cc1F [Example 40]	IC50	0.1 to 0.5 µM

Q) State its IC50 on C-Raf kinase (Homo sapiens, UniProt P04049, Y340D/Y341D): CNC(=O)c1cc(-c2cnnc(-c3cc(NC(=O)N4CCC5(CC5)C4)ccc3C)c2)ccn1 [Example 178]
A) 0.5 to 1 µM

Q) Please answer likewise for COC(=O)Nc1cc(-c2cc(-c3cc(NC(=O)NCCC4(OC)CC4)c(F)cc3C)ccn2)ccn1 [Example 145]
A) ≤ 0.1 µM

Q) Queued: Cc1cc(F)c(NC(=O)NCCC2(C)CC2)cc1-c1cc(OCCO)nc(-c2ccnc(NC(=O)C3CC3)c2)c1 [Example 76]
A) ≤ 0.1 µM

Q) // next record CCNC(=O)Nc1cc(-c2cc(OCCO)nc(-c3ccnc(NC(=O)C4CC4)c3)c2)c(C)cc1F [Example 98]
A) ≤ 0.1 µM

Q) Then Cc1ccc(NC(=O)NCCC2(C)CC2)cc1-c1cc(-c2cnn(C)c2)nc(N2CCOCC2)c1 [Example 37] ?
A) ≤ 0.1 µM

Q) // next record CC(=O)Nc1cc(-c2cc(-c3cc(NC(=O)NCCC4(C)CC4)c(F)cc3C)cc(C3CC3)n2)ccn1 [Example 51]
A) ≤ 0.1 µM

Q) Follow-up entry: Cc1cc(F)c(NC(=O)NCCC(C)(C)C#N)cc1-c1cc(OCCO)nc(-c2ccncc2)c1 [Example 41]
A) 0.1 to 0.5 µM

Q) Follow-up entry: Cc1cc(F)c(NC(=O)NCCC(C)(C)C#N)cc1-c1cccc(-c2cc(NC(=O)C3CC3)ncn2)c1 [Example 67]
A) ≤ 0.1 µM

Q) Item: CC(=O)Nc1cc(-c2cc(-c3cc(NC(=O)NCCC4(C)CC4)c(F)cc3C)cc(NCCO)n2)ccn1 [Example 175]
A) ≤ 0.1 µM

Q) Let us now turn to COC(=O)Nc1cc(-c2cnnc(-c3cc(NC(=O)N4CCC(CC(F)(F)F)C4)c(F)cc3C)c2)ccn1 (stereo not drawn) [Example 150]
A) ≤ 0.1 µM

* * *

- Tested system: B-Raf (V600E) kinase (Homo sapiens, UniProt P15056, V600E)
- Construct: B-Raf (V600E) residues 416-766 with a; GST (N); purchased SignalChem
- Sequence (P15056 416-766 V600E): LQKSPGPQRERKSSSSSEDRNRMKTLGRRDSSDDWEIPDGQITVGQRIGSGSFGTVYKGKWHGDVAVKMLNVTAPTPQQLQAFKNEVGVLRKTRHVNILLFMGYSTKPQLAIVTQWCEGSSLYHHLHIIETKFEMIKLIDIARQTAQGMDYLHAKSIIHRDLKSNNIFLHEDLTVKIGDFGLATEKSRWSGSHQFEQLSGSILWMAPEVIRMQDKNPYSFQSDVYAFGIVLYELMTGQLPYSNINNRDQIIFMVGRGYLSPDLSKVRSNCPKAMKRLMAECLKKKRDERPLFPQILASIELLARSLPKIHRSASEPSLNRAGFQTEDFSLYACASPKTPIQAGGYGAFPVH
- Protocol details: Biochemical assay for B-Raf (V600E).1 (coupled pyruvate kinase/lactate dehydrogenase)
- Experimental context: read-out: BRAF V600E.1 IC50
Test readout: IC50

Compound	Value measured
Cc1ccc(NC(=O)N2CC[C@H](C(F)(F)F)C2)cc1-c1cccc(-c2cc(NC(=O)C3CC3)ncn2)c1 [Example 200]	≤ 100 nM
COC(=O)Nc1cc(-c2cc(-c3cc(NC(=O)N4CCC(C(F)(F)F)C4)ccc3C)cc(OCCO)n2)ccn1 (stereo not shown) [Example 222]	≤ 100 nM
COC(=O)Nc1cc(-c2cncc(-c3cc(NC(=O)N4CCCCCC4)ccc3C)c2)ccn1 [Example 202]	100 to 500 nM

Turning now to a further record.
Q) Looking for the measured IC50 of Cc1ncc(NC(=O)NCCC2(C)CC2)cc1-c1cc(OCCO)nc(-c2ccnc(NC(=O)C3CC3)c2)n1 [Example 133] , can you help?
A) ≤ 100 nM

* * *

- Tested system: A-Raf kinase (Homo sapiens, UniProt P10398, Y301D/Y302D)
- Construct: purchased Sigma
- Sequence (P10398 with tags, fused parts or gaps Y301D/Y302D): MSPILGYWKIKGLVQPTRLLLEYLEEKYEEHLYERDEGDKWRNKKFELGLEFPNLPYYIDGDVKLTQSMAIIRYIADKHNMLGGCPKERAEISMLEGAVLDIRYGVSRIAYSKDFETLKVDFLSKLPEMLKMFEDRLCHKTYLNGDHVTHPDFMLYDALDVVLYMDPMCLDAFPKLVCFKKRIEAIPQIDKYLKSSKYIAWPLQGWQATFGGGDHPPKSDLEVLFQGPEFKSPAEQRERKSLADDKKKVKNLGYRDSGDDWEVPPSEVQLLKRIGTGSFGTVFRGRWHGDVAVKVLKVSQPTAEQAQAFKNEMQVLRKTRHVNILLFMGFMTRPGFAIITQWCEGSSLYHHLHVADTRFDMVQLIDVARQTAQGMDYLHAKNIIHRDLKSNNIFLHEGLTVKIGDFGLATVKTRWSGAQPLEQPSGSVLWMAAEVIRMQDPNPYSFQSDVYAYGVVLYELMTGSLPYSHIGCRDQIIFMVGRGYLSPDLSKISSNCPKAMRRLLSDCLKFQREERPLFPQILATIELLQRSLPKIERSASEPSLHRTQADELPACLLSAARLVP
- Protocol details: Biochemical assay for A-Raf.1 (coupled pyruvate kinase/lactate dehydrogenase)
- Experimental context: read-out: ARAF.1 IC50
IC50 values by entry

Compound	Tested system	IC50
Cc1ncc(NC(=O)NCCC(C)(C)F)cc1-c1nccc(-c2ccnc(NC(=O)C3CC3)c2)n1	A-Raf kinase (Homo sapiens, UniProt P10398, Y301D/Y302D)	> 1 µM
CC(=O)Nc1cc(-c2cc(-c3cc(NC(=O)NCC45CC(F)(C4)C5)c(F)cc3C)cc(OCCO)n2)ccn1	A-Raf kinase (Homo sapiens, UniProt P10398, Y301D/Y302D)	> 1 µM
Cc1ccc(NC(=O)N2CC[C@@H](C(C)C)C2)cc1-c1cncc(-c2cc(NC(=O)C3CC3)ncn2)c1	A-Raf kinase (Homo sapiens, UniProt P10398, Y301D/Y302D)	0.1 to 0.5 µM
Cc1cc(F)c(NC(=O)NCCC2(C)CC2)cc1-c1cnnc(-c2ccnc(NC(=O)C3CC3)c2)c1	A-Raf kinase (Homo sapiens, UniProt P10398, Y301D/Y302D)	0.5 to 1 µM

Q) Which measured IC50 value corresponds to Cc1ccc(NC(=O)N[C@H]2C[C@](C)(F)C2)cc1-c1cc(OCCO)nc(-c2ccnc(NC(=O)CN(C)C)c2)c1 ?
A) > 1 µM

Q) Please give the result for Cc1ncc(NC(=O)NCCC2(C)CC2)cc1-c1ccnc(-c2ccnc(NC(=O)C3(C#N)CC3)c2)c1 too.
A) > 1 µM

Q) And then COC(=O)Nc1cc(-c2nc(OCCO)cc(-c3cc(NC(=O)NC4CC(C)(C)C4)c(F)cc3C)n2)ccn1 , what is it?
A) > 1 µM

Q) Further, for Cc1ccc(NC(=O)Nc2cnn(CC(F)(F)F)c2)cc1-c1cc(OCCO)nc(N2CCOCC2)c1 ?
A) > 1 µM

Q) Then this compound: COC(C)(C)CCNC(=O)Nc1cnc(C)c(-c2cc(-c3ccnc(NC(=O)C4CC4)c3)cnn2)c1
A) > 1 µM

Q) Please give the result for CNC(=O)c1cc(-c2cnnc(-c3cc(NC(=O)N4CC[C@@H](OC(F)(F)F)C4)ccc3C)c2)ccn1 too.
A) > 1 µM

Q) What do you have for CNC(=O)c1cc(-c2cnnc(-c3cc(NC(=O)NCCC(C)(C)F)c(F)cc3C)c2)ccn1 ?
A) > 1 µM

Q) Follow-up entry: COC(C)(C)CCNC(=O)Nc1cc(-c2cc(OCCO)nc(-c3ccncc3)c2)c(C)cc1F
A) > 1 µM

* * *

- Tested system: B-Raf (V600E) kinase (Homo sapiens, UniProt P15056, V600E)
- Construct: B-Raf (V600E) residues 416-766 with a; GST (N); purchased SignalChem
- Protocol details: Biochemical assay for B-Raf (V600E).1 (coupled pyruvate kinase/lactate dehydrogenase)
- Experimental context: read-out: BRAF V600E.1 IC50
pIC50: −log10 of the molar value.
Test readout: pIC50

Item smiles	pIC50
Cc1ncc(NC(=O)NCCC2(C)CC2)cc1-c1nccc(-c2ccnc(NC(=O)C3CC3)c2)n1	≥ 7.00
COC(=O)Nc1cc(-c2cc(-c3cc(NC(=O)N4CC[C@H](C(F)(F)F)C4)ccc3C)nc(C)n2)ccn1	< 6.00
COC(=O)Nc1cc(-c2cc(-c3cc(NC(=O)NCCC4COC4)c(F)cc3C)cc(OCCO)n2)ccn1	≥ 7.00
COC[C@@H]1CCN(C(=O)Nc2cnc(C)c(-c3cc(OCCO)nc(-c4ccnc(NC(=O)OC)c4)c3)c2)C1	≥ 7.00
COC(=O)Nc1cc(-c2cc(-c3cc(NC(=O)N4CCC(C)(C)C4)cnc3C)ccn2)ccn1	< 6.00

Q) Fill in the blank: the reported pIC50 of Cc1ccc(NC(=O)NC23CC4CC(CC(C4)C2)C3)cc1-c1cc(OCCO)nc(N2CCOCC2)c1 is ____.
A) ≥ 7.00

Q) # iterate: Cc1cc(F)c(NC(=O)NC2CC(C)(C)C2)cc1-c1cc(OCCO)nc(-c2ccnc(NC(=O)C3CC3)c2)c1
A) ≥ 7.00

* * *

The reader will find reported pIC50 values listed item by item below.
- Tested system: C-Raf kinase (Homo sapiens, UniProt P04049, Y340D/Y341D)
- Construct: Y340D,; GST (N); purchased Sigma
- Protocol details: Biochemical assay for C-Raf.1 (coupled pyruvate kinase/lactate dehydrogenase)
- Experimental context: read-out: CRAF.1 IC50
pIC50: −log10 of the molar value.

Q) Observed pIC50 on C-Raf kinase (Homo sapiens, UniProt P04049, Y340D/Y341D) for COC(=O)Nc1cc(-c2cc(-c3cc(NC(=O)NCCC4COC4)c(F)cc3C)cc(OCCO)n2)ccn1 [Example 155] , please.
A) ≥ 7.00

Q) Another: CNC(=O)c1cc(-c2cnnc(-c3cc(NC(=O)N4CCC(C(C)(C)C)C4)cnc3C)c2)ccn1 (stereo not shown) [Example 184]
A) 6.00 to 6.30

Q) Entry to check: CNC(=O)c1cc(-c2cnnc(-c3cc(NC(=O)NCCC(C)(C)OC)c(F)cc3C)c2)ccn1 [Example 123]
A) 6.00 to 6.30

Q) Can you check CNC(=O)c1cc(-c2cnnc(-c3cc(NC(=O)N4CC[C@@H](OC)C4)ccc3C)c2)ccn1 [Example 181] next?
A) < 6.00

The origin of these recorded values is patent US20230357179A1.
